- Tested on: PCSK9 gene
- PROTOCOL DESCRIPTION: PCSK9 gRNA/SpCas9 editing in primary cynomolgus hepatocytes (Tables 2, 22)
- Format: cell-based, cynomolgus monkey
- SETUP CONDITIONS: 500 ng/RNA/mL; SpCas9 mRNA MS002 1:1 by weight
In the oligonucleotide strings, read from the 5' end, every base follows the letter of its sugar. An asterisk marks phosphorothioate; unmarked linkages are phosphodiester. Other units and linkages are bracketed, terminal groups are in braces. A string of capitals states the bases alone. m = 2'-O-methyl; r = 2'-OH (RNA)
Hi! Just check whether Cyno Primary Hepatocyte Editing % 500 is below 6%. Below gives true (1), equal or above gives false (0).

[
  {
    "MOLECULE": "GA210: PCSK9 gRNA; protospacer CTGCGCGTGCTCAACTGCCA (SEQ ID NO: 204) (nucleic acid, sugars from the 5' end m3 r94 m3, linkages s3 o93 s3 (s phosphorothioate, o phosphodiester), T or U not given here) guide: CUGCGCGUGCUCAACUGCCAGUUUUAGAGCUAGAAAUAGCAAGUUAAAAUAAGGCUAGUCCGUUAUCAACUUGAAAAAGUGGCACCGAGUCGGUGCUUUU",
    "CLASSIFICATION": "false (0)"
  }
]

[in] Say whether its Cyno Primary Hepatocyte Editing % 500 is strictly beneath 6%. Entry: GA157: PCSK9 gRNA; protospacer GCCGTCCTCCTCGGAACGCA (SEQ ID NO: 151) (nucleic acid) guide: mG*mC*mC*rGrUrCrCrUrCrCrUrCrGrGrArArCrGrCrArGrUrUrUrUrArGrArGrCrUrArGrArArArUrArGrCrArArGrUrUrArArArArUrArArGrGrCrUrArGrUrCrCrGrUrUrArUrCrArArCrUrUrGrArArArArArGrUrGrGrCrArCrCrGrArGrUrCrGrGrUrGrCrU*mU*mU*mU
[out] true (1)

[in] For GA179: PCSK9 gRNA; protospacer GAGTGGCGACCTGCTGGAGC (SEQ ID NO: 173) (nucleic acid) guide: mG*mA*mG*rUrGrGrCrGrArCrCrUrGrCrUrGrGrArGrCrGrUrUrUrUrArGrArGrCrUrArGrArArArUrArGrCrArArGrUrUrArArArArUrArArGrGrCrUrArGrUrCrCrGrUrUrArUrCrArArCrUrUrGrArArArArArGrUrGrGrCrArCrCrGrArGrUrCrGrGrUrGrCrU*mU*mU*mU , is the recorded Cyno Primary Hepatocyte Editing % 500 below the cut-off of 6%?
[out] true (1)

[in] API: query returns whether the molecule falls strictly under 6% in Cyno Primary Hepatocyte Editing % 500. Query: GA217: PCSK9 gRNA; protospacer GTGGTCAGCGGCCGGGATGC (SEQ ID NO: 211) (nucleic acid, sugars from the 5' end m3 r94 m3, linkages s3 o93 s3 (s phosphorothioate, o phosphodiester), T or U not given here) guide: GUGGUCAGCGGCCGGGAUGCGUUUUAGAGCUAGAAAUAGCAAGUUAAAAUAAGGCUAGUCCGUUAUCAACUUGAAAAAGUGGCACCGAGUCGGUGCUUUU
[out] false (0)

[in] Threshold test, Cyno Primary Hepatocyte Editing % 500 < 6%: GA213: PCSK9 gRNA; protospacer CGTGCTCAACTGCCAAGGGA (SEQ ID NO: 207) (nucleic acid, sugars from the 5' end m3 r94 m3, linkages s3 o93 s3 (s phosphorothioate, o phosphodiester), T or U not given here) guide: CGUGCUCAACUGCCAAGGGAGUUUUAGAGCUAGAAAUAGCAAGUUAAAAUAAGGCUAGUCCGUUAUCAACUUGAAAAAGUGGCACCGAGUCGGUGCUUUU
[out] false (0)
